- TARGET: Recombinant human LTC4 synthase (Homo sapiens, UniProt Q16873)
- Sequence (Q16873 whole entry): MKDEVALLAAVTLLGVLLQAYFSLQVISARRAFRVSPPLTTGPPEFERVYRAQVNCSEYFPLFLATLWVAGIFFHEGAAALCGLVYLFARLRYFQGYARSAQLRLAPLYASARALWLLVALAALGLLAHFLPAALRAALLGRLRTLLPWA
- ASSAY_EXPLANATION: In vitro LTC4 synthase assay (LTA4 to LTC4, HTRF detection)
pIC50: −log10 of the molar value.
VALUE_KIND: pIC50

Look over these answered cases.
CN(c1ccc(Cl)cc1)c1ccc(C(=O)c2cc(Oc3cccc(OC(F)(F)F)c3)cc(C(=O)O)c2)cc1 [8:10] : 6.77
CN(c1ccc(Cl)cc1)c1ccc(C(=O)c2cc(C(=O)O)cc(N(C)c3ccc4c(c3)OCO4)c2)nc1 [9:30] : 6.71

a. CN(c1ccc(Cl)cc1)c1ccc(C(=O)c2cc(Nc3ccccc3OC(F)(F)F)cc(C(=O)O)c2)cc1 [10:4]
b. COc1ccc(NC(=O)c2cc(C(=O)O)cc(C(=O)c3ccc(N(C)c4ccc(Cl)cc4)cn3)c2)cc1 [2:6]
Which gives the smaller pIC50 number: a or b ? Pick one; state its label.
b
(b: 6.13, a: 6.69)

---

- TARGET: Recombinant human LTC4 synthase (Homo sapiens, UniProt Q16873)
- ASSAY_EXPLANATION: In vitro LTC4 synthase assay (LTA4 to LTC4, HTRF detection)
pIC50: −log10 of the molar value.
VALUE_KIND: pIC50

CN(c1ccc(Cl)cc1)c1ccc(C(=O)c2cc(NC(=O)c3ccccc3)cc(C(=O)O)c2)nc1 : 6.67
CN(c1ccc(Cl)cc1)c1ccc(C(=O)c2cc(C(=O)O)cc(N(CCC3OCCO3)c3ccccc3)c2)nc1 : 6.91

I. CN(c1ccc(Cl)cc1)c1ccc(C(=O)c2cc(OCc3ccc4c(c3)OCO4)cc(C(=O)O)c2)nc1
II. COc1cccc(Oc2cc(C(=O)O)cc(C(=O)c3ccc(N(C)c4ccc(Cl)cc4)cc3)c2)c1
Which gives the smaller pIC50 number: I or II ? Pick one; state its label.
I

1. CN(c1ccc(Cl)cc1)c1ccc(C(=O)c2cc(C(=O)O)cc(N(CCCCO)c3cccnc3)c2)nc1
2. COc1cccc(COc2cc(C(=O)O)cc(C(=O)c3ccc(N(C)c4ccc(Cl)cc4)cn3)c2)c1
3. CN(c1ccc(Cl)cc1)c1ccc(C(=O)c2cc(C(=O)O)cc(-c3ccc(Cl)cc3)c2)nc1
4. CN(c1ccc(Cl)cc1)c1ccc(C(=O)c2cc(C(=O)O)cc(N(C(=O)C3CCOCC3)c3ccccc3)c2)cc1
Sort the compounds on pIC50; start with the lowest figure. Response field: labels, in requested order.
4, 3, 2, 1
(4: 6.09, 3: 6.35, 2: 6.60, 1: 6.90)

I. CN(c1ccc(Cl)cc1)c1ccc(C(=O)c2cc(Sc3ccccc3)cc(C(=O)O)c2)nc1
II. CN(c1ccc(Cl)cc1)c1ccc(C(=O)c2cc(Oc3cccc(Cl)c3)cc(C(=O)O)c2)cc1
Which gives the smaller pIC50 number: I or II ? Pick one; state its label.
I
(I: 6.68, II: 7.06)

---

- TARGET: Recombinant human LTC4 synthase (Homo sapiens, UniProt Q16873)
- ASSAY_EXPLANATION: In vitro LTC4 synthase assay (LTA4 to LTC4, HTRF detection)
pIC50: −log10 of the molar value.
VALUE_KIND: pIC50

CN(c1ccc(Cl)cc1)c1ccc(C(=O)c2cc(C(=O)O)cc(N(C)c3ccc(Cl)cc3)c2)nc1 : 7.35
CN(c1ccc(Cl)cc1)c1ccc(C(=O)c2cc(C(=O)O)cc(N(C(=O)CC3CCCC3)c3ccccc3)c2)cc1 : 6.72
CN(c1ccc(Cl)cc1)c1ccc(C(=O)c2cc(Nc3ccccc3OC(F)F)cc(C(=O)O)c2)cc1 : 6.96

P. CN(c1ccc(Cl)cc1)c1ccc(C(=O)c2cc(C(=O)O)cc(N(CCCCO)c3ccc4c(c3)OCCO4)c2)nc1
Q. O=C(O)c1cc(Nc2ccc(Cl)cc2)ccc1C(=O)c1ccc(Nc2ccc(Cl)cc2)cc1
Rank P against Q by their pIC50 values and give the higher one. Pick one; state its label.
P

1. COc1cccc(Nc2cc(C(=O)O)cc(C(=O)c3ccc(N(C)c4ccc(Cl)cc4)cn3)c2)c1
2. CN(c1ccc(Cl)cc1)c1ccc(C(=O)c2cc(C(=O)O)cc(N(CC3CCC3)c3ccccc3)c2)cc1
Which gives the smaller pIC50 number: 1 or 2 ? Pick one; state its label.
1

a. CN(c1ccc(Cl)cc1)c1ccc(C(=O)c2cc(Nc3ccc(C(F)(F)F)cc3)cc(C(=O)O)c2)cc1
b. CN(c1ccc(Cl)cc1)c1ccc(C(=O)c2cc(Oc3ccc(Cl)cc3)cc(C(=O)O)c2)cc1
Which gives the smaller pIC50 number: a or b ? Pick one; state its label.
a
(a: 6.80, b: 7.31)

---

- TARGET: Recombinant human LTC4 synthase (Homo sapiens)
- ASSAY_EXPLANATION: In vitro LTC4 synthase assay (LTA4 to LTC4, HTRF detection)
- Method: In the assay, LTC4 synthase catalyses the reaction where the substrate LTA4 is converted to LTC4. Recombinant human LTC4 synthase is expressed in Piccia pastoralis and the purified enzyme is dissolved in 25 mM tris-buffer pH 7.8 supplemented with 0.1 mM glutathione (GSH) and stored at −80° C. The assay is performed in phosphate buffered saline (PBS) pH 7.4 and 5 mM GSH in 384-well plates. […] 1. […] 10 μL of the incubation mixture is analysed using homogenous time resolved fluorescent (HTRF) detection.
VALUE_KIND: IC50 (µM)

Look over these answered cases.
CN(c1ccc(Cl)cc1)c1ccc(C(=O)c2cc(C(=O)O)cc(N(CC3CCCCO3)c3ccccc3)c2)cc1 (stereo not shown) [10:36] : 0.025
COc1ccc(CN(C)c2cc(C(=O)O)cc(C(=O)c3ccc(N(C)c4ccc(Cl)cc4)cn3)c2)cc1 [9:9] : 0.123
COc1ccc(N(CC2(C)COC2)c2cc(C(=O)O)cc(C(=O)c3ccc(N(C)c4ccc(Cl)cc4)cn3)c2)cc1 [9:25] : 0.088
CN(c1ccc(Cl)cc1)c1ccc(C(=O)c2cc(C(=O)O)cc(C(=O)Nc3cccc(Cl)c3)c2)nc1 [2:4] : 0.39
CN(c1ccc(Cl)cc1)c1ccc(C(=O)c2cc(C(=O)O)cc(N(C)c3ccccc3)c2)cc1 [Example 10:23] : 0.04

a. CN(c1ccc(Cl)cc1)c1ccc(C(=O)c2cc(Oc3ccccc3Cl)cc(C(=O)O)c2)cc1 [8:19]
b. CN(c1ccc(Cl)cc1)c1ccc(C(=O)c2cc(Oc3ccc(F)c(F)c3)cc(C(=O)O)c2)nc1 [8:2]
Which gives the smaller IC50 number: a or b ? Pick one; state its label.
b
(b: 0.041 µM, a: 0.08 µM)

---

- TARGET: Recombinant human LTC4 synthase (Homo sapiens, UniProt Q16873)
- ASSAY_EXPLANATION: In vitro LTC4 synthase assay (LTA4 to LTC4, HTRF detection)
VALUE_KIND: IC50 (nM)

1. CN(c1ccc(Cl)cc1)c1ccc(C(=O)c2cc(C(=O)O)cc(C(=O)Nc3ccc(Cl)cc3)c2)nc1 [2:3]
2. CCCCCCC(=O)Nc1ccc(C(=O)c2ccc(Nc3ccc(Cl)cc3)cc2C(=O)O)cc1 [Example 4:1]
3. COc1cccc(C(=O)c2cc(C(=O)O)cc(C(=O)c3ccc(N(C)c4ccc(Cl)cc4)cn3)c2)c1 [Example 15]
Order by IC50, smallest first, the items presented above. Response field: labels, in requested order.
3, 1, 2

---

- TARGET: Recombinant human LTC4 synthase (Homo sapiens, UniProt Q16873)
- ASSAY_EXPLANATION: In vitro LTC4 synthase assay (LTA4 to LTC4, HTRF detection)
VALUE_KIND: IC50 (nM)

CN(c1ccc(Cl)cc1)c1cc(C(=O)O)cc(C(=O)c2ccc(N(CC3CC3)c3ccc(Cl)cc3)cn2)c1 : 17
CN(c1ccc(Cl)cc1)c1ccc(C(=O)c2cc(OCc3cccc(F)c3)cc(C(=O)O)c2)nc1 : 454
COc1cccc(Oc2cc(C(=O)O)cc(C(=O)c3ccc(N(C)c4ccc(Cl)cc4)cn3)c2)c1 : 188
CCN(c1ccccc1)c1cc(C(=O)O)cc(C(=O)c2ccc(N(C)c3ccc(Cl)cc3)cc2)c1 : 33
CN(c1ccc(Cl)cc1)c1ccc(C(=O)c2cc(C(=O)O)cc(N(CC3CC3)c3ccccc3)c2)nc1 : 32
CN(c1ccc(Cl)cc1)c1ccc(C(=O)c2cc(NCc3ccc(Cl)cc3Cl)cc(C(=O)O)c2)cc1 : 75
CN(c1ccc(Cl)cc1)c1ccc(C(=O)c2cc(C(=O)O)cc(C(=O)Nc3cc(F)ccc3F)c2)cc1 : 682
CN(c1ccc(Cl)cc1)c1ccc(C(=O)c2cc(Nc3ccc4c(c3)OCCO4)cc(C(=O)O)c2)nc1 : 463

P. CN(c1ccc(Cl)cc1)c1ccc(C(=O)c2cc(C(=O)O)cc(N(C)c3cccc(Cl)c3)c2)nc1
Q. O=C(O)c1cc(Nc2ccc(Cl)cc2)ccc1C(=O)c1ccc(Nc2ccc(C(=O)C3CC3)cc2)cc1
R. CN(c1ccc(Cl)cc1)c1ccc(C(=O)c2cc(C(=O)O)cc(N(C)c3ccccc3)c2)nc1
S. CC(=O)N(c1cc(C(=O)O)cc(C(=O)c2ccc(N(C)c3ccc(Cl)cc3)cn2)c1)C1CCCCC1
Highest IC50 first, then in falling order down to the smallest. Response field: labels, in requested order.
S, Q, P, R
(S: 1820 nM, Q: 390 nM, P: 147 nM, R: 33 nM)

A. CN(c1ccc(Cl)cc1)c1ccc(C(=O)c2cc(OCc3ccccc3)cc(C(=O)O)c2)nc1
B. CN(Cc1ccc2c(c1)OCO2)c1cc(C(=O)O)cc(C(=O)c2ccc(N(C)c3ccc(Cl)cc3)cn2)c1
C. CN(c1ccc(Cl)cc1)c1ccc(C(=O)c2cc(C(=O)O)cc(N(C(=O)CC(C)(C)C)c3ccccc3)c2)nc1
D. CN(c1ccc(Cl)cc1)c1ccc(C(=O)c2ccc(NC(=O)c3cccc(Cl)c3)cc2)c(C(=O)O)c1
Sort the compounds on IC50; start with the lowest figure. Response field: labels, in requested order.
B, C, A, D
(B: 103 nM, C: 160 nM, A: 462 nM, D: 703 nM)

a. CN(c1ccc(Cl)cc1)c1ccc(C(=O)c2cc(C(=O)O)cc(C(=O)Nc3ccc4c(c3)OC(F)(F)O4)c2)cc1
b. CN(Cc1ccc(Cl)cc1)c1cc(C(=O)O)cc(C(=O)c2ccc(N(C)c3ccc(Cl)cc3)cn2)c1
Rank a against b by their IC50 values and give the higher one. Pick one; state its label.
a
(a: 424 nM, b: 170 nM)

P. COc1ccc(Nc2cc(C(=O)O)cc(C(=O)c3ccc(N(C)c4ccc(Cl)cc4)cc3)c2)cc1OC
Q. CN(c1ccc(Cl)cc1)c1ccc(C(=O)c2cc(C(=O)O)cc(N(C)c3cccnc3)c2)nc1
Which gives the smaller IC50 number: P or Q ? Pick one; state its label.
P

Source listed as patent US20120004228A1.
